measurement-target: Hemagglutinin of influenza A/Japan/305/57 (H2N2), on inactivated whole virions (Influenza A virus A/Japan/305/1957 …, UniProt P03451 16-562)
test-summary: ELISA, B cell culture supernatant on inactivated whole virions
metric-name: OD450
Put your answer as a value accompanied by its unit after it.

Solved entries (count: 2):
binder	result
TCN-532 (5262_H18) (antibody, V domains shown) VH: QVQLQESGPGLVKPSETLSLTCTVSGGSVSSETYYWSWIRQPPGKGLEWIGYIYYIGNTDYRPSLKSRVTISLDTSKNQFSLKLSSVTAADTAVYYCARGAYYDSSGYPAFYIWGQGTMVTVSS VL: QSVLTQPPSVSGAPGQRVTISCTGSSSNIGSDYDVHWYKQLPGTAPKLLIFGNSNRPSGVPDRFSGSKSGTSASLAITGLQAEDEADYYCQSYDSSLSGFHVFGSGTKVTVL	0.07 OD450
TCN-543 (5081_G23) (antibody, V domains shown) VH: QVHLVQSGAEVRKPGDSVKVSCKTSGYTFSTYPVAWVRQVPGQGLEWMGWISTYNGNTNFAQNFQGRVTLTTDTTTNTAYMEVRSLKFDDTAVYYCARVEGSYRDFWNNQNRFDPWGQGTLVTVSS VL: SYVLTQPPSVSVAPGQTARISCGGSNIGGKSVHWYQQKPGQAPVLVVYDDSGRPSGIPERFSGSNSGDTATLTISRVEAGDEADYFCQVWDNFGGVFGTGTKVTVL	3.62 OD450

// returns reported OD450 for input TCN-563 (5237_B21) (antibody, V domains shown) VH: QVQLAQSGAEVKRPGSSVKVSCTASGGIFRKNAISWVRQAPGQGLEWMGGIIAVFNTANYAQKFQGRVKITADESGNTAYMELSSLRSDDTAVYYCASHPKYFYGSGSYPDFWGQGTLVTVSS VL: QSALTQPRSVSGSPGQSVTISCTGSSSDVGASNSVSWYQQHPGKAPKLVIYDVTERPSGVPHRFSGSKSGNTASLTVSGLQPEDEADYFCCAYGGKYLVVFGGGTKVTVL 1.23 OD450
